# Experimental System: Muscarinic acetylcholine receptor M4 (Rattus norvegicus) (UniProt P08485)
# Sequence (P08485 whole entry, looked up): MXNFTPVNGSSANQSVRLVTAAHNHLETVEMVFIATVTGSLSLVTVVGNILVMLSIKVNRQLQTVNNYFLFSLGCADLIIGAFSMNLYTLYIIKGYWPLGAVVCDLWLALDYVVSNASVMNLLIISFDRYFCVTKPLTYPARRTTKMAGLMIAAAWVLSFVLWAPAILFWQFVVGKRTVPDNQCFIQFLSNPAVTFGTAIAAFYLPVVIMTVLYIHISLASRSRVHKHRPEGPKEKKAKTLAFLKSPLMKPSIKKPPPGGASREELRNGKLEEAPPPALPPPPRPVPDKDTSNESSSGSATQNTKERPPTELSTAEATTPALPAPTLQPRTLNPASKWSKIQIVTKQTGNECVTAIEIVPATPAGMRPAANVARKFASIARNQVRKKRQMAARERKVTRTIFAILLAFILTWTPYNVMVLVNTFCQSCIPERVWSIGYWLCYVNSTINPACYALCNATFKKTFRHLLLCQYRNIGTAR
# Method Summary: agonist activity at rat M4 receptor, confirmation, counter-screen for M1 allosteric modulator project, cell-based, agonist mode (AID 1741)
# Particulars: CHO M4/Gqi5 cells, Fluo-4 calcium fluorescence, at 10 µM, actives lie on both sides
The campaign covered roughly 1,700 compounds. About 150 (8.8%) were called active. Not shown: some 19% with an inconclusive outcome.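 The calls were made as follows: active = fluorescence change differing from the plate's solvent-only control wells at 99.7% confidence in both duplicates, whether higher or lower; inconclusive = differs from solvent controls in only one of two duplicates; inactive = the rest.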 These entries were drawn from the full list.
Mark one answer only. Choices: y for active, n for inactive

The following compounds have reported results that may help.
# Compound, Qualitative Label
records = [
    ("O=C(Nc1cccc(-c2nnc(-c3ccccc3)o2)c1)C1CCCO1 (configuration not stated)", "n"),
    ("CC(C)(C)c1cc(CN2CCN(CCC#N)CC2)cc(C(C)(C)C)c1O", "n"),
    ("COC(=O)c1ccc(CSc2nc3ccccc3c(=O)n2-c2cccc(OC)c2)o1", "n"),
    ("CCN(CC)c1ccc2cc(C(=O)O)c(=O)oc2c1", "n"),
    ("CCN=C1SC(CC(=O)Nc2ccc(C)cc2)C(=O)N1CC (configuration not stated)", "y"),
]

**Q:** Name the outcome recorded for CC(=O)Nc1ccc(NC(=O)CN2CCCC(C)C2)c(Cl)c1 (configuration not stated) in the assay.
**A:** n

**Q:** Name the outcome recorded for COc1ccc(Nc2oc(-c3ccccc3Cl)nc2C#N)cc1 in the assay.
**A:** n

**Q:** Name the outcome recorded for CC(NC(=O)CSc1nc2c(cc1C#N)CN(C)CC2)c1ccccc1 (configuration not stated) in the assay.
**A:** n

**Q:** Name the outcome recorded for O=C1c2ccccc2-c2ncnc3c(N4CCOCC4)cc(N4CCOCC4)c1c23 in the assay.
**A:** n

**Q:** Name the outcome recorded for COc1ccc2[nH]c(=O)c(CN(CC3CCCO3)C(=O)Nc3ccccc3)cc2c1 (configuration not stated) in the assay.
**A:** n

**Q:** Name the outcome recorded for COc1ccc(N(CC(=O)NC(C)(C)C)C(=O)c2ccco2)cc1 in the assay.
**A:** n

====

# Experimental System: Muscarinic acetylcholine receptor M4 (Rattus norvegicus) (UniProt P08485)
# Method Summary: agonist activity at rat M4 receptor, confirmation, counter-screen for M1 allosteric modulator project, cell-based, agonist mode (AID 1741)
# Particulars: CHO M4/Gqi5 cells, Fluo-4 calcium fluorescence, at 10 µM, actives lie on both sides
The campaign covered roughly 1,700 compounds. About 150 (8.8%) were called active. Roughly 19% stayed inconclusive and do not appear here. A selection follows.
Grouping rule (fluorescence change (max-min)): lowest (below -60), middle (-60 to below 20), highest (20 or more)

The following compounds have reported results that may help.
# Compound, Qualitative Label
data = [
    ("CCCN1CC=C2C(C#N)=C(N)C(C#N)(C#N)C(c3cc(OC)ccc3OC)C2C1 (stereo unspecified)", "highest"),
    ("CCOc1ccc2[nH]c(=O)c(CN(Cc3nnnn3Cc3ccccc3)CC3CCCO3)cc2c1 (stereo unspecified)", "middle"),
    ("O=C(NCCC1=CCCCC1)C1CCN(Cc2cnn(-c3ccccc3)c2-n2cccc2)CC1", "lowest"),
]

**Q:** // bin(item) where item = Fc1ccc2[nH]c3c(N4CCSCC4)ncnc3c2c1
**A:** lowest

**Q:** // bin(item) where item = COc1ncnc2c1N=C1CC(C)(C)CC(N)=C1S2
**A:** highest

**Q:** // bin(item) where item = COc1ccc(C2C(C(=O)N3CCN(c4ccc(OC)cc4)CC3)c3ccccc3C(=O)N2C)cc1 (stereo unspecified)
**A:** middle

====

# Experimental System: Muscarinic acetylcholine receptor M4 (Rattus norvegicus)
# Method Summary: agonist activity at rat M4 receptor, confirmation, counter-screen for M1 allosteric modulator project, cell-based, agonist mode (AID 1741)
# Particulars: CHO M4/Gqi5 cells, Fluo-4 calcium fluorescence, at 10 µM, actives lie on both sides
Screen size: about 1,700 compounds; about 150 (8.8%) were called active. Inconclusive results (about 19%) are left out. Not all results are given here.
Use -7 as the dividing line for fluorescence change (max-min), with the line itself on the label 1 side and lower values as label 0.

The following compounds have reported results that may help.
# Compound, Experimental System, Qualitative Label
measured = [
    ("COc1ccc2nc(N3CCCC(O)C3)c(C#N)cc2c1 (stereo not given)", "Muscarinic acetylcholine receptor M4 (Rattus norvegicus)", "label 1"),
    ("CCOc1nc(-c2ccc(OC)cc2)ccc1-c1noc(-c2cc(OC)c(OC)c(OC)c2)n1", "Muscarinic acetylcholine receptor M4 (Rattus norvegicus)", "label 1"),
]

**Q:** I'd appreciate it if you could say whether COc1ccccc1N1CCN(C(=O)c2cn(-c3ccccc3)nc2-c2cccnc2)CC1 has fluorescence change (max-min) at least equal to -7.
**A:** label 0

**Q:** I'd appreciate it if you could say whether c1n[nH]c(NCc2ccc3c(c2)OCO3)n1 has fluorescence change (max-min) at least equal to -7.
**A:** label 0

Where do the numbers come from? From PubChem BioAssay AID1741.
